- Test system: MCF-7
- methodSummary: Cell growth inhibition assay (SRB), MCF-7
- Assay type: cell-based, Human
- conditionSet: MCF-7 (breast, hormone-dependent), 96 hours
- Description: […] The growth inhibition of the substituted quinazoline derivative compounds against a variety of human tumor cells was evaluated. […] To translate the OD530 values into the number of live cells in each well, the OD530 values were compared to those on standard OD530—versus—cell number curves generated for each cell line. The percent survival was calculated using the formula: % Survival=live cell number [test]/live cell number [control]×100 The IC50 values were calculated by non-linear regression analysis.
measureName: IC50 (µM)
# output: bare number, implied unit µM

> print(dat)
                                   molecule  testsystem  outputunit   val
1      Ic1ccc2ncnc(NC3CCCCC3)c2c1 [RX-1659]       MCF-7          µM  0.36
2    CC(C)Nc1ncnc2cc3[nH]cnc3cc12 [RX-1834]       MCF-7          µM  0.11
3  Cc1cc(C)c(Nc2ncnc3ccc([N+](=O)[O-])cc23)c(C)c1 [RX-1122]       MCF-7          µM  0.63
4  FC(F)(F)c1ccccc1CNc1ncnc2ccc(Br)cc12 [RX-1260]       MCF-7          µM  0.74

Now for the molecule whose IC50 we want.
Prompt line: Hello, please tell me recorded IC50 for this one: Ic1ccc2ncnc(NCCCCc3ccccc3)c2c1 [RX-1670]
Response line: 0.43

---

Overview of reported IC50 across a group of compounds:
- System: PANC-1
- methodSummary: Cell growth inhibition assay (SRB), PANC-1
- Format: cell-based, Human
- conditionSet: PANC-1 (pancreas), 96 hours

Some entries whose results are on file:
> print(dat)
                             smilesstr      val
1       Ic1ccc2ncnc(NCCCCc3ccccc3)c2c1   > 3 µM
2         CC(C)Nc1ncnc2cc3[nH]cnc3cc12   > 3 µM
3     Fc1cc(Cl)ccc1Nc1ncnc2ccc(Br)cc12   > 3 µM
4      Fc1cccc(CCNc2ncnc3ccc(I)cc23)c1  1.83 µM
5           Ic1ccc2ncnc(NC3CCCCC3)c2c1   > 3 µM
6  FC(F)(F)c1ccccc1CNc1ncnc2ccc(I)cc12   > 3 µM

Prompt line: Hello, please tell me recorded IC50 for this one: Fc1cccc(CCNc2ncnc3ccc(Br)cc23)c1
Response line: > 3 µM

Prompt line: Hello, please tell me recorded IC50 for this one: Cc1cccc2ncnc(NCCc3ccc(F)cc3)c12
Response line: 0.22 µM

Prompt line: Hello, please tell me recorded IC50 for this one: Fc1cc(Cl)ccc1Nc1ncnc2ccc(I)cc12
Response line: > 3 µM

Prompt line: Hello, please tell me recorded IC50 for this one: Cc1cc(C)c(Nc2ncnc3ccc([N+](=O)[O-])cc23)c(C)c1
Response line: 1.42 µM

Prompt line: Hello, please tell me recorded IC50 for this one: Fc1cccc(CCNc2ncnc3ccccc23)c1
Response line: 0.34 µM

---

Overview of reported IC50 across a group of compounds:
- Test system: U251
- methodSummary: Cell growth inhibition assay (SRB), U251
- Type: cell-based, Human
- conditionSet: U251 (brain), 96 hours
# output: bare number, implied unit µM

> print(dat)
                          smilesstr  testsystem  outputunit   val
1   Fc1cc(Cl)ccc1Nc1ncnc2ccc(I)cc12        U251          µM  2.19
2   Cc1cccc2ncnc(NCCc3ccc(F)cc3)c12        U251          µM  1.78
3    Ic1ccc2ncnc(NCCCCc3ccccc3)c2c1        U251          µM  0.62
4  Fc1cc(Cl)ccc1Nc1ncnc2ccc(Br)cc12        U251          µM  2.97

Prompt line: Hello, please tell me recorded IC50 for this one: FC(F)(F)c1ccccc1CNc1ncnc2ccc(I)cc12
Response line: 0.53

Where do these numbers come from? They come from patent US7388014B2.
